test_target: SARS-CoV-2 PLpro (Severe acute respiratory syndrome coronavirus 2, UniProt P0DTD1)
procedure_details: biochemical
assay_context: IC50
test_readout: IC50 (µM)
Write the answer as a number in µM, unit excluded.

Input: State the recorded IC50 for this entry: Nc1cc(C(=O)Nc2cccc3ccccc23)cc(C(F)(F)F)c1 [Compound 4]
Output: 43.2

====

System: SARS-CoV-2
procedure_details: microbe, parasite or virus in culture
Assay type: cell-based, SARS-CoV-2 (nCoV/Washington/1/2020) in Vero E6 cells
assay_context: Severe acute respiratory syndrome coronavirus 2, Vero C1008, 24 h; read-out: EC50
Please go through the items and note down their EC50.
Write your answer as a measured quantity: the number, then the unit.

Input: Give its EC50 value. Item: `CCCCC(=O)Nc1ccc(C)c(C(=O)N[C@H](C)c2cccc3ccccc23)c1`
Output: 5200 nM

Input: Try this compound next: `CCCCNC(=O)Nc1ccc(C)c(C(=O)N[C@H](C)c2cccc3ccccc23)c1`
Output: 2500 nM

Input: Next up: `Nc1cc(C(=O)Nc2cccc3ccccc23)cc(C(F)(F)F)c1`
Output: 1700 nM

====

Test system: SARS-CoV-2
procedure_details: microbe, parasite or virus in culture
Type: cell-based, SARS-CoV-2 (nCoV/Washington/1/2020) in Vero E6 cells
assay_context: Severe acute respiratory syndrome coronavirus 2, Vero C1008, 24 h
test_readout: pEC50
pEC50 is a log-scale quantity: -log10 of the concentration expressed in molar.

Input: // lookup pEC50 | system=SARS-CoV-2 | key= Cc1ccc(N)cc1C(=O)N[C@H](C)c1cccc2ccccc12 [Compound 1]
Output: 5.85

====

test_target: SARS-CoV-2 PLpro (Severe acute respiratory syndrome coronavirus 2)
procedure_details: biochemical
assay_context: pH 7.3; read-out: IC50
test_readout: pIC50
Scale: negative log10 of molar concentration, which is what pIC50 denotes.

Input: Can you share its pIC50? I mean this compound: `CCCCC(=O)Nc1ccc(C)c(C(=O)N[C@H](C)c2cccc3ccccc23)c1`
Output: 4.90

Input: `Cc1ccc(NC(=O)Oc2ccc([N+](=O)[O-])cc2)cc1C(=O)N[C@H](C)c1cccc2ccccc12` , same question.
Output: 5.15

Input: Same read-out for `Cc1ccc(NC(=O)NC(N)=O)cc1C(=O)N[C@H](C)c1cccc2ccccc12` ?
Output: 5.29

Input: How about `C=CC(=O)Nc1ccc(C)c(C(=O)N[C@H](C)c2cccc3ccccc23)c1` ?
Output: 5.19
